Values were extracted from PubChem BioAssay AID463190.

# Assay Name: growth inhibitors of tim10-1 mutant yeast, primary screen, luminescence, uHTS (AID 463190);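 note: mutant grown at 25 °C; 0% = DMSO wells with yeast and 100% = wells holding no yeast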
# Test Context: S. cerevisiae tim10-1 ts strain growth, BacTiter-Glo, 24 h; at 20 µM; active compounds read high
About 7,300 (2.2%) of roughly 330,000 compounds were called active. What follows is part of a selection rich in actives, with near analogues and random picks from the rest.
Recorded Endpoint: inhibition (%)
Express your answer in %, writing the number without its unit.

Recorded results for 3 compounds are shown here.
Smiles Record	Unit Of Measurement	Experimental Result
NC(=O)c1ccsc1NC(=O)c1ccco1	%	-3.6
O=C(Nc1nnc(CCOCCOCCc2nnc(NC(=O)c3ccco3)s2)s1)c1ccco1	%	-13
NS(=O)(=O)c1ccc(NC(=S)NC(=O)c2cccc(Br)c2)cc1	%	23.9

Which inhibition value belongs to `COc1cc(/C=C2/C(=O)ON=C2C)ccc1OCc1cccc(F)c1` ?
9.41

Which inhibition value belongs to `NS(=O)(=O)c1ccc(NC(=S)Nc2ccc(Br)c(Cl)c2)cc1` ?
55.7

Which inhibition value belongs to `C=CCOc1ccc(/C=C2/C(=O)ON=C2C)cc1OCC` ?
5.79

====

# Assay Name: growth inhibitors of tim10-1 mutant yeast, primary screen, luminescence, uHTS (AID 463190);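 note: mutant grown at 25 °C; 0% = DMSO wells with yeast and 100% = wells holding no yeast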
# Test Context: S. cerevisiae tim10-1 ts strain growth, BacTiter-Glo, 24 h; at 20 µM; active compounds read high
Screen size: about 330,000 compounds; about 7,300 (2.2%) were called active. The list comes from a sample in which actives are over-represented; it also holds close analogues and randomly drawn compounds.
Recorded Endpoint: inhibition (%)
Express your answer in %, writing the number without its unit.

Recorded results for 5 compounds are shown here.
Compound	Unit Of Measurement	Experimental Result
O=C(NC(=S)NC1CCCCC1)c1ccc(Cl)cc1	%	34.7
O=C(/C=C/c1c(F)cccc1Cl)Nc1nn[nH]n1	%	10.7
Cc1ccc(NS(=O)(=O)c2ccc(-c3ccc(=O)[nH]n3)o2)c(C)c1	%	1.41
Cc1ccc(-n2nc(C)c(/C=N/NC(=O)c3cccs3)c2Cl)cc1	%	-6.6
CCOC(=O)NC(=O)/C(C#N)=C\c1ccccc1	%	2.89

Which inhibition value belongs to `Cc1nn(-c2ccccc2)c(Cl)c1/C=C/C(=O)c1ccc(O)cc1` ?
0.354

Which inhibition value belongs to `Cc1ccc(C(=O)CSc2ccccc2C(=O)O)cc1` ?
-0.398

====

# Assay Name: growth inhibitors of tim10-1 mutant yeast, primary screen, luminescence, uHTS (AID 463190);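 note: mutant grown at 25 °C; 0% = DMSO wells with yeast and 100% = wells holding no yeast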
# Test Context: S. cerevisiae tim10-1 ts strain growth, BacTiter-Glo, 24 h; at 20 µM; active compounds read high
Hit rate of the full screen: of about 330,000 compounds, about 7,300 (2.2%) were called active. The sample holds actives, similar compounds and a random draw of the others, so the mix is not that of the screen.
The entries below are paired with their reported inhibition.
Express your answer in %, writing the number without its unit.

Recorded results for 5 molecules are shown here.
Smiles Record	Recorded Endpoint	Experimental Result
Cc1ccc(N=Cc2c(O)n(-c3nccs3)c(=O)c3ccccc23)c(C)c1	inhibition	9.76
COc1ccccc1C(=O)NCCn1cc(SCC(=O)NCc2ccco2)c2ccccc21	inhibition	29.1
O=C(Nc1ccc(Br)cn1)c1ccc([N+](=O)[O-])cc1Cl	inhibition	7.02
Cc1ccc(Sc2cc(N3CCOCC3)nc(-c3ccccc3)n2)cc1	inhibition	20.9
CN1C(=O)c2ccc(C(=O)Nc3ccc(Br)cn3)cc2C1=O	inhibition	6.17

Which inhibition value belongs to `Cc1cccc(NC(=O)c2ccc([N+](=O)[O-])o2)c1` ?
58

Which inhibition value belongs to `Cc1ccc(/C=N/NC(=O)c2cc3ccccc3cc2O)o1` ?
15.5

Which inhibition value belongs to `Cc1onc(C(=O)NCc2ccc(F)cc2)c1[N+](=O)[O-]` ?
5.1

Which inhibition value belongs to `O=C(Nc1ccc(Br)cn1)c1ccc([N+](=O)[O-])o1` ?
66.6

Which inhibition value belongs to `COc1ccc(C2(CNC(=O)C(c3ccccc3)c3ccccc3)CCOCC2)cc1OC` ?
15.2

Which inhibition value belongs to `CCN(CC)S(=O)(=O)c1ccc(N2CCCC2)c(NC(=O)c2ccc([N+](=O)[O-])o2)c1` ?
31.3
